assay.name: Half life in ICR mouse at 10 mg/kg, po
Assay type: ADME, organism-based
condition.set: in vivo
measurement.kind: half-life (h)

INSERT INTO results (smiles_text, quantitative_result) VALUES
  ('COc1cc(N2CCCC2=O)ccc1Nc1nc(NC2CCCCC2)c2c(C#N)c[nH]c2n1', 1.1);

(P) Cc1cc(N2CCOCC2)ccc1Nc1nc(NC2CCCCC2)c2c(C#N)c[nH]c2n1
(Q) COc1cc(C(=O)N2CCOCC2)ccc1Nc1nc(NC2CCCCC2)c2c(C#N)c[nH]c2n1
Prompt line: # min-compare on half-life between P and Q Use the label to indicate which entry you chose.
Response line: P

====

subject.of.test: Dual specificity protein kinase TTK (Homo sapiens) (UniProt P33981)
assay.name: Binding affinity to human hexa-His tagged MPS1 (515 to 795 residue) expressed in Escherichia coli BL2I-DE3 cells assessed as change in melting temperature by thermal shift assay
measurement.kind: ΔTm (°C)

Please review the following examples before continuing.
INSERT INTO measurements (smiles_text, quantitative_result) VALUES
  ('COc1cc(N2CCCC2=O)ccc1Nc1nc(NCC2CCCC2)c2c(C#N)c[nH]c2n1', 15.2),
  ('COc1cc(N2CCCC2=O)ccc1Nc1nc(NC2CCOCC2)c2c(C#N)c[nH]c2n1', 14.8);

(1) CNc1nc(Nc2ccc(N3CCCC3=O)cc2OC)nc2[nH]cc(C#N)c12
(2) N#Cc1c[nH]c2nc(Nc3ccc(N4CCCC4=O)cc3)nc(NC3CCCCC3)c12
Prompt line: # min-compare on ΔTm between 1 and 2 Use the label to indicate which entry you chose.
Response line: 1
(1: 7.3 °C, 2: 17.2 °C)

====

subject.of.test: Dual specificity protein kinase TTK (Homo sapiens, UniProt P33981)
Sequence (P33981 whole entry): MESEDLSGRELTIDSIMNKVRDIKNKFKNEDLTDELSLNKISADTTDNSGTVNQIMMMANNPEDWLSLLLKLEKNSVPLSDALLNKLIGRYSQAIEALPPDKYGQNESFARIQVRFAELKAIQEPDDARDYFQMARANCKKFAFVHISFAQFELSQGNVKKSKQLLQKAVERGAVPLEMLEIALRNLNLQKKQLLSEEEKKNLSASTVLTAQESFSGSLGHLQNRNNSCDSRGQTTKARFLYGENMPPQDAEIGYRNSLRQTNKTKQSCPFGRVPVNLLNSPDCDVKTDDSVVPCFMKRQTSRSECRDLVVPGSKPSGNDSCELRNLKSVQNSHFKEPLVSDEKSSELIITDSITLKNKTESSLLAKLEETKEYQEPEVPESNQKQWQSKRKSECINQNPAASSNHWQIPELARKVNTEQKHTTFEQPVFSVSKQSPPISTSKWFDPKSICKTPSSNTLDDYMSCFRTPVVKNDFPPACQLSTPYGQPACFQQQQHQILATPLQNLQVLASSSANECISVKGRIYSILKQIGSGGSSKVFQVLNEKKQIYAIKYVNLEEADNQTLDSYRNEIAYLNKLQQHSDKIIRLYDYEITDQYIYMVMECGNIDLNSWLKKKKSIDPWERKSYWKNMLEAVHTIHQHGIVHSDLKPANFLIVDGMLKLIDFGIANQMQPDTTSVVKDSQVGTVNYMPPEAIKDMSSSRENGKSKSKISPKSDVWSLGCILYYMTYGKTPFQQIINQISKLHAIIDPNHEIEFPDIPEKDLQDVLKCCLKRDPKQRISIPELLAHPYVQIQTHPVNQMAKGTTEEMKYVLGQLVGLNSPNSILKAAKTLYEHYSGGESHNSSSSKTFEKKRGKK
measurement.kind: pIC50
By convention, pIC50 is the negative base-10 log of a molar concentration.

Prompt line: What value of pIC50 has been reported for the following compound? `COc1cc(C(=O)N2CCOCC2)ccc1Nc1nc(NC2CCCCC2)c2c(C#N)c[nH]c2n1`
Response line: 8.49
